Hey, just so you know, these numbers are from ChEMBL document CHEMBL1137758.

target: Estrogen receptor beta (Homo sapiens, UniProt Q92731); assay: Displacement of fluorescein-labeled estradiol from human recombinant ERbeta at 5 uM by fluorescence polarization assay
Sequence (Q92731 whole entry): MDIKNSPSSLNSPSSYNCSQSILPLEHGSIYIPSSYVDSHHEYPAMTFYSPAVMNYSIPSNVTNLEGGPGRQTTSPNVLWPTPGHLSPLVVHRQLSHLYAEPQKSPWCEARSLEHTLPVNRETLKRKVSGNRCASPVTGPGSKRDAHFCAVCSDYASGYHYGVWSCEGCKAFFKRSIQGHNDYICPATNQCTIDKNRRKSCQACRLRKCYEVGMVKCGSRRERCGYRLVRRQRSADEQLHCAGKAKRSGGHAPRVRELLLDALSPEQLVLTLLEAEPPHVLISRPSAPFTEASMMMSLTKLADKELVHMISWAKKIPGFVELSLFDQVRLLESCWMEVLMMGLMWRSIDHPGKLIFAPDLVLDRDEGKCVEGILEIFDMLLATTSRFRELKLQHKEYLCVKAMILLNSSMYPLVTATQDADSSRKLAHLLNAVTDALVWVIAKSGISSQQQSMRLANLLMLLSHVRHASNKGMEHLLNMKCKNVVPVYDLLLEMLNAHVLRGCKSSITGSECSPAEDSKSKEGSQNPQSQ
Attribute Measured: Activity (%)

CCC/C=C(\CCC)[C@@H](NP(=O)(c1ccccc1)c1ccccc1)c1ccc(C(F)(F)F)cc1 :: 27
CCCC[C@@H]1C[C@H]1[C@@H](NC(=O)c1ccccc1)c1ccc(-c2ccccc2)cc1 :: 46
CCC/C=C(\CCC)[C@@H](NS(=O)(=O)c1ccc(-c2ccccc2)cc1)c1ccc(C(=O)OC)cc1 :: 16
C=C(CCC)[C@@H](NC(=O)c1ccccc1Cl)c1ccccc1 :: 7
CCC/C=C(\CCC)[C@@H](NC(=O)c1ccc(C(F)(F)F)cc1)c1ccc(C(F)(F)F)cc1 :: 5

A = CCC/C=C(\CCC)[C@@H](NS(=O)(=O)c1ccc(C(F)(F)F)cc1)c1ccc(-c2ccccc2)cc1
B = CCC/C=C(\CCC)[C@@H](NS(=O)(=O)c1ccccc1)c1ccc(C(F)(F)F)cc1
C = CCCC[C@@H]1C[C@H]1C(NC(=O)c1cccs1)c1ccc(C(F)(F)F)cc1 (single isomer, unassigned)
D = CCCC[C@@H]1C[C@H]1[C@@H](NC(=O)c1ccco1)c1ccccc1
Request: Place the items in sequence of falling Activity. // rank by listing labels in the order requested
Response: B, D, C, A

###

target: Estrogen receptor (Homo sapiens) (UniProt P03372); experiment: Displacement of fluorescein-labeled estradiol from human recombinant ERalpha at 0.2 uM by fluorescence polarization assay
Attribute Measured: Activity (%)

1 = CCC/C=C(\CCC)[C@@H](NP(=O)(c1ccccc1)c1ccccc1)c1ccc(-c2ccccc2)cc1
2 = CCCCCC/C=C(\C)[C@@H](NC(=O)c1ccc(C(F)(F)F)cc1)c1ccc(-c2ccccc2)cc1
3 = CCC/C=C(\CCC)[C@@H](NC(=O)c1ccc(C(F)(F)F)cc1)c1ccc(C(F)(F)F)cc1
Request: Arrange the 3 compounds by rising Activity, starting with the smallest. // rank by listing labels in the order requested
Response: 3, 2, 1
(3: -7%, 2: 29%, 1: 46%)

###

Target: Estrogen receptor (Homo sapiens) (UniProt P03372)
Sequence (whole entry): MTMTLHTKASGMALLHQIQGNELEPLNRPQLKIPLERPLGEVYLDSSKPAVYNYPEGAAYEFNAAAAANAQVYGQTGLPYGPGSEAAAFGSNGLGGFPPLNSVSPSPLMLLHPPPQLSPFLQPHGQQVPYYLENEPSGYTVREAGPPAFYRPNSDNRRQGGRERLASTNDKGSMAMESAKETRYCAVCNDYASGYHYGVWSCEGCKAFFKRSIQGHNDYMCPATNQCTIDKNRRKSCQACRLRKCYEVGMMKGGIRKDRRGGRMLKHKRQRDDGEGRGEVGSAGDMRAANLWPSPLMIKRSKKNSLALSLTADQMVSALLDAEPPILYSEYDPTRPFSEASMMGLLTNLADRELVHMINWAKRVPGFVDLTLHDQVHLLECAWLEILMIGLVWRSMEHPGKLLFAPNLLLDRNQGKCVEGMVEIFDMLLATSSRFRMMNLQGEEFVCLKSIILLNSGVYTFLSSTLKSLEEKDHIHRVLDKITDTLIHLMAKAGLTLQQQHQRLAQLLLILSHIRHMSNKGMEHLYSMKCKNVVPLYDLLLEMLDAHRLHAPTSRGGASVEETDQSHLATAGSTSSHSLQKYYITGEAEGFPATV
Assay: Displacement of fluorescein-labeled estradiol from human recombinant ERalpha at 1 uM by fluorescence polarization assay
Attribute Measured: Activity (%)

CCC/C=C(\CCC)[C@@H](NC(=O)C(C)(C)C)c1ccc(C(=O)OC)cc1 :: 42

I = C=C(CCCC)[C@@H](NC(=O)c1ccc(-c2ccccc2)cc1)c1ccccc1
II = CCC/C=C(\CCC)[C@@H](NS(=O)(=O)c1cccc2cccnc12)c1ccc(C(=O)OC)cc1
III = CCCC[C@@H]1C[C@H]1[C@@H](NC(=O)c1cccs1)c1ccc(-c2ccccc2)cc1
Request: Place the items in sequence of falling Activity. // rank by listing labels in the order requested
Response: II, III, I
(II: 111%, III: 54%, I: 35%)

I = CCC/C=C(\CCC)[C@@H](NS(=O)(=O)c1ccccc1Cl)c1ccc(C(=O)OC)cc1
II = CCC/C=C(\CCC)[C@@H](NS(C)(=O)=O)c1ccccc1
Request: Could you kindly indicate whether I or II has the higher Activity value? Bench note: the answer is the label of the chosen record.
Response: I
(I: 92%, II: 39%)

###

molecular target: Estrogen receptor beta (Homo sapiens, UniProt Q92731); test: Displacement of fluorescein-labeled estradiol from human recombinant ERbeta at 1 uM by fluorescence polarization assay
Attribute Measured: Activity (%)

Check out these entries, answers already filled in.
CCC/C=C(\CCC)[C@@H](NC(=O)c1ccc(C(=O)OC)cc1)c1ccc(C(=O)OC)cc1 :: -3
CCC/C=C(\CCC)[C@@H](NS(C)(=O)=O)c1ccccc1 :: -4

I = CCC/C=C(\CCC)[C@@H](NC(=O)c1ccco1)c1ccc(C(=O)OC)cc1
II = CCC/C=C(\CCC)[C@@H](NC(=O)c1cccs1)c1ccc(C(=O)OC)cc1
III = CCC[C@@H]1C[C@@]1(CCC)[C@@H](NC(=O)Cc1ccccc1)c1ccc(-c2ccccc2)cc1
Request: Place the items in sequence of falling Activity. // rank by listing labels in the order requested
Response: II, I, III

###

Biological target: Estrogen receptor (Homo sapiens)
Sequence (whole entry): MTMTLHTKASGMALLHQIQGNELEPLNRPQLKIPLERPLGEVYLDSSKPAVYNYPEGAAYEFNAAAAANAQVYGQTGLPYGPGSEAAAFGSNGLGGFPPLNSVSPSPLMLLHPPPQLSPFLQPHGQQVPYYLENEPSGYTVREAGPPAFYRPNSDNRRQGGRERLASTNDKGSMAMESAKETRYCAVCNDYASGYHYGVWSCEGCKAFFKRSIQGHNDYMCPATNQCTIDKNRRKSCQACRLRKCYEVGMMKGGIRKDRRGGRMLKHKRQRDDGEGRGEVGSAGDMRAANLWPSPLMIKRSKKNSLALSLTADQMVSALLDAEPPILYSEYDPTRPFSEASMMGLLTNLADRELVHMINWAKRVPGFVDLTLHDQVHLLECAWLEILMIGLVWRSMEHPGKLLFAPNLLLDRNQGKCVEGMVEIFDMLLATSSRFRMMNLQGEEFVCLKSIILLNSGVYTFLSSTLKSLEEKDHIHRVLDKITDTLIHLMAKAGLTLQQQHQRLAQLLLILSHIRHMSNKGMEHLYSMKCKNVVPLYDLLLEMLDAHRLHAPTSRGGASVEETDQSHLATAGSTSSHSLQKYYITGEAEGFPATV
Assay: Displacement of fluorescein-labeled estradiol from human recombinant ERalpha at 0.2 uM by fluorescence polarization assay
Attribute Measured: Activity (%)

Check out these entries, answers already filled in.
CCC/C=C(\CCC)[C@@H](NS(=O)(=O)c1cccc2cccnc12)c1ccc(-c2ccccc2)cc1 :: 56
CCC/C=C(\CCC)[C@@H](NS(=O)(=O)c1ccc(C(F)(F)F)cc1)c1ccccc1 :: 47
CCC/C=C(\CCC)[C@@H](NS(=O)(=O)c1cccs1)c1ccc(C(=O)OC)cc1 :: 39
CCCC[C@@H]1C[C@H]1[C@@H](NC(=O)c1ccc(-c2ccccc2)cc1)c1ccc(-c2ccccc2)cc1 :: 52
CCC/C=C(\CCC)[C@@H](NS(=O)(=O)c1ccc(C(F)(F)F)cc1)c1ccc(-c2ccccc2)cc1 :: 72

I = C=C(CCCC)[C@@H](NC(=O)c1ccc(C(=O)OC)cc1)c1ccccc1
II = CCC/C=C(\CCC)[C@@H](NS(=O)(=O)c1ccc(C(F)(F)F)cc1)c1ccc(C(=O)OC)cc1
III = CCCCCC/C=C(\C)[C@@H](NC(=O)c1cccnc1)c1ccc(-c2ccccc2)cc1
IV = C=C(CCCC)[C@@H](NC(=O)c1ccc(-c2ccccc2)cc1)c1ccccc1
Request: Arrange the 4 molecules by rising Activity, starting with the smallest. // rank by listing labels in the order requested
Response: IV, I, III, II

1 = CCC/C=C(\CCC)[C@@H](NS(C)(=O)=O)c1ccccc1
2 = CCC/C=C(\CCC)[C@@H](NC(=O)CC(C)C)c1ccccc1
Request: Just tell me: smaller Activity value, 1 or 2 ? Bench note: the answer is the label of the chosen record.
Response: 1

###

target: Estrogen receptor beta (Homo sapiens, UniProt Q92731); assay: Displacement of fluorescein-labeled estradiol from human recombinant ERbeta at 5 uM by fluorescence polarization assay
Attribute Measured: Activity (%)

Check out these entries, answers already filled in.
CCCC[C@@H]1C[C@H]1[C@@H](NC(=O)c1ccco1)c1ccc(C(F)(F)F)cc1 :: 22
C=C(CCCC)[C@@H](NC(=O)c1ccc(C(F)(F)F)cc1)c1ccccc1 :: 3
CCC/C=C(\CCC)[C@@H](NC(=O)Cc1ccccc1)c1ccc(C(=O)OC)cc1 :: 13
CCCC[C@@H]1C[C@H]1[C@@H](NC(=O)c1ccccc1)c1ccc(C(F)(F)F)cc1 :: 13
C=C(CCCC)[C@@H](NC(=O)c1ccc(C(=O)OC)cc1)c1ccccc1 :: 5
CCC[C@@H]1C[C@@]1(CCC)[C@@H](NP(=O)(c1ccccc1)c1ccccc1)c1ccc(Cl)cc1 :: -5
CCC/C=C(\CCC)[C@@H](NS(=O)(=O)c1cccc2cccnc12)c1ccc(C(=O)OC)cc1 :: 42
CCC/C=C(\CCC)[C@@H](NC(=O)CCc1ccccc1)c1ccc(C(F)(F)F)cc1 :: 17
CCCC[C@@H]1C[C@@]1(C)[C@@H](NS(=O)(=O)c1cccc2cccnc12)c1ccc(-c2ccccc2)cc1 :: 2
CCC/C=C(\CCC)[C@@H](NC(=O)c1ccccc1)c1ccc(C(=O)OC)cc1 :: 11

P = CCC/C=C(\CCC)[C@@H](NC(=O)c1ccc(C(=O)OC)cc1)c1ccc(C(=O)OC)cc1
Q = CCCC[C@@H]1C[C@H]1[C@@H](NC(=O)c1ccc(-c2ccccc2)cc1)c1ccc(-c2ccccc2)cc1
Request: Could you kindly indicate whether P or Q has the higher Activity value? Bench note: the answer is the label of the chosen record.
Response: P
(P: 8%, Q: 4%)

a = CCC/C=C(\CCC)[C@@H](NC(=O)CC(C)C)c1ccccc1
b = CCC/C=C(\CCC)[C@@H](NP(=O)(c1ccccc1)c1ccccc1)c1ccc(-c2ccccc2)cc1
c = CCCC[C@@H]1C[C@H]1C(NC(=O)c1ccco1)c1ccc(C(=O)OC)cc1 (single isomer, unassigned)
Request: Arrange the 3 compounds by rising Activity, starting with the smallest. // rank by listing labels in the order requested
Response: b, c, a
(b: -25%, c: 15%, a: 22%)
